- Tested on: TTR
- testProtocol: TTR editing in primary human hepatocytes electroporated with Spy Cas9 protein loaded with dgRNAs (Table 7)
- Type: cell-based
- particulars: dgRNA electroporated with Spy Cas9 protein (RNP)
- Method: Primary liver hepatocytes. Primary human liver hepatocytes (PHH) and primary cynomolgus liver hepatocytes (PCH) (Gibco) were cultured per the manufacturer's protocol (Invitrogen, protocol 11.28.2012). […] Cells were counted and plated on Bio-coat collagen I coated 96-well plates (ThermoFisher, Cat. 877272) at a density of 33,000 cells/well for human or 60,000 cells/well for cyno (or 65,000 cells/well when assaying effects on TTR protein, described further below). […]
Rule: Avg % Deletion below 0.5% gives Fulfilled. Equal to or above 0.5% gives Not fulfilled.

Exercise: Bench note: check whether ACCUGGGAGCCAUUUGCCUC (tested as dual guide RNA, chemistry not given here) [CR003354] shows Avg % Deletion below 0.5%
Key: Fulfilled

Exercise: I wonder whether CUGGUAUUUGUGUCUGAGGC (tested as dual guide RNA, chemistry not given here) [CR003341] has Avg % Deletion below 0.5%. Can you tell?
Key: Not fulfilled

Exercise: For this sequence, is Avg % Deletion lower than 0.5%? GCGGCAAUGGUGUAGCGGCG (tested as dual guide RNA, chemistry not given here) [CR003377]
Key: Fulfilled

Exercise: Is it true that Avg % Deletion reported for AUACCAGUCCAGCAAGGCAG (tested as dual guide RNA, chemistry not given here) [CR003338] is less than 0.5%?
Key: Not fulfilled
